Where do the numbers come from? From patent US12358859B2.

# Tested on: murine melanoma cells B16-F1
# Protocol: Cell viability, tetrazolium reduction assay
# Type: cell-based
# Run parameters: mouse, 48 h
Result type: CELL VIABILITY (µM)
Answers are plain numbers, in µM.

The cases that follow already have their CELL VIABILITY on record.
>>> df
                                   compound     result_type  unit_descriptor  result_number
0  CC(C)=CCCC(C)/C=C/c1ccc(O)cc1 (stereo not shown) [Compound 5]  CELL VIABILITY               µM             50
1  CC(C)=CCC/C(C)=C/c1cc(O)cc(O)c1 [Compound 4]  CELL VIABILITY               µM            127
2  CC(C)=CCCC(C)C/C=C\c1cc(O)cc(O)c1 (stereo not shown) [Compound 15]  CELL VIABILITY               µM            269
3  CC(C)=CCCC(C)/C=C/c1ccc2cc(O)ccc2c1 (stereo not shown) [Compound 8]  CELL VIABILITY               µM             68
4  CC(C)=CCCC(C)=Cc1cccc(O)c1 (mixture of isomers) [Compound 2]  CELL VIABILITY               µM             66
5  CC(C)=CCC/C(C)=C/c1ccc(O)cc1O [Compound 3]  CELL VIABILITY               µM            172
6  CC(C)=CCCC(C)/C=C/c1ccccn1 (stereo not shown) [Compound 13]  CELL VIABILITY               µM            650
7  COc1ccc(/C=C/C(C)CCC=C(C)C)cn1 (stereo not shown) [Compound 14]  CELL VIABILITY               µM            369

For every listed record, write down its CELL VIABILITY.
1. CC(C)=CCCC(C)C/C=C/c1cc(O)cc(O)c1 (stereo not shown) [Compound 16]
2. CC(C)=CCCC(C)C/C=C/c1cc(OCC(=O)O)cc(OCC(=O)O)c1 (stereo not shown) [Compound 17]

Completion:
[172, 127]
